- SYSTEM_NAME: LRRK2 wild type (recombinant human, catalytic domain amino acids 970-2527, GST-tagged) (Homo sapiens)
- Construct: The wild type used was recombinant human, catalytic domain (amino acids 970-2527) GST-tagged, expressed in insect cells; GST
- Sequence (Q5S007 970-2527): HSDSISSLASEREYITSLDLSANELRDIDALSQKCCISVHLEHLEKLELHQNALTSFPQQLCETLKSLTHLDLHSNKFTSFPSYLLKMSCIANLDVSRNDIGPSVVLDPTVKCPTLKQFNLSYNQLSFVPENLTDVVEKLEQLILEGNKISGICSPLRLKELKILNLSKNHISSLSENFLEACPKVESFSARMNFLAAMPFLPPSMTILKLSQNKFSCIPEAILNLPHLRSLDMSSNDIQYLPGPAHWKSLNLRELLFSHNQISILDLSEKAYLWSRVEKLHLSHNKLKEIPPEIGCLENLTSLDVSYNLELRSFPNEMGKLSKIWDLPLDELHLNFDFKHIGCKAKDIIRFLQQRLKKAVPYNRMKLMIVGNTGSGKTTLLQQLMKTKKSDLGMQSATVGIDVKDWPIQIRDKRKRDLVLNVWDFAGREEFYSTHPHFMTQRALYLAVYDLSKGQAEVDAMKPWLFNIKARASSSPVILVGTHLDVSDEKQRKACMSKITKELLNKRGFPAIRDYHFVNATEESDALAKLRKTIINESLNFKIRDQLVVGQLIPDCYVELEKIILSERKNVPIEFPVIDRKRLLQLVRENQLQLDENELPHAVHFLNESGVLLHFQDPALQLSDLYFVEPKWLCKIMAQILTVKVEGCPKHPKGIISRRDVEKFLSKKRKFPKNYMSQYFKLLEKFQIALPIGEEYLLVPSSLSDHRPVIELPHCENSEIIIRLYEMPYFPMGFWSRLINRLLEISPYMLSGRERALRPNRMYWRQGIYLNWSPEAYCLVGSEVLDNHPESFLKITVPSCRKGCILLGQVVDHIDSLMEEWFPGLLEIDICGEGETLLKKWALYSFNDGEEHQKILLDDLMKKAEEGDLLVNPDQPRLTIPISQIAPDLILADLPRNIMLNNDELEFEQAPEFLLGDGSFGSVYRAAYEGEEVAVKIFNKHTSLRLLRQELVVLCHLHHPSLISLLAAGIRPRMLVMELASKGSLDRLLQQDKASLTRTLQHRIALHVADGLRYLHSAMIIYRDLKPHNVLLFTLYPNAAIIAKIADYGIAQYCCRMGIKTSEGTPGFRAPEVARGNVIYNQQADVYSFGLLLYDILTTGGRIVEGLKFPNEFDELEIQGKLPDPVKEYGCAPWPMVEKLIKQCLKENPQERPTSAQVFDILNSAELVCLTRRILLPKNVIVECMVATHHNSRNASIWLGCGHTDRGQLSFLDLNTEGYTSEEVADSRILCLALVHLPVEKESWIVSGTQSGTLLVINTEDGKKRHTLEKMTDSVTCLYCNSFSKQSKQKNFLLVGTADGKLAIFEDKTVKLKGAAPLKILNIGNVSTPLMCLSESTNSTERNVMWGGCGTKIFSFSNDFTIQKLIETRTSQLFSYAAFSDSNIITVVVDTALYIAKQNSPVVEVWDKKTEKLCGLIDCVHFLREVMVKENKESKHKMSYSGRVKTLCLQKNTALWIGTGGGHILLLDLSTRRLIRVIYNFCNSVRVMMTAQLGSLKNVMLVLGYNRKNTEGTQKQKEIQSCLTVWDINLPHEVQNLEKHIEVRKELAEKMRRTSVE
- ASSAY_OVERVIEW: LRRK2 wild type protein kinase assay ([γ-33P] ATP, peptide substrate […]), IC50
- EXPERIMENTAL_CONTEXT: LRRK2 (variant not given); read-out: Potency score, LRRK2 IC50
Recorded IC50 by entry
MEASURED_ENDPOINT: IC50

1. Cc1n[nH]c2ccnc(NC3CCN(Cc4ccccc4)CC3)c12; 1000 to 10000 nM
2. Cc1n[nH]c2ccnc(-c3cnccn3)c12; 1000 to 10000 nM
3. c1cc2[nH]nc(-c3ccoc3)c2c(OC2CCCCC2)n1; < 100 nM
4. COc1ccccc1NC(=O)c1ccc(Nc2nccc3[nH]nc(C)c23)cc1; 1000 to 10000 nM
5. Cc1n[nH]c2ccnc(Nc3ccc(C(=O)N(C)C4CCCCC4)cc3)c12; 1000 to 10000 nM
